Test system: NCI-H1703
Experiment: relative viability (nuclei count vs DMSO), 5 days (fraction); higher = more cells survive
Details: first compound 0.08 µM
readout.name: relative viability
Answer with the value's number alone.

Consider the worked cases shown below.
- compound: "O=c1[nH]c2ccccc2n1C1CCN(CCCC(c2ccc(F)cc2)c2ccc(F)cc2)CC1 [Pimozide] + C[C@@H](Oc1cc(-c2cnn(C3CCNCC3)c2)cnc1N)c1c(Cl)ccc(F)c1Cl [Crizotinib] (partner 1 µM)"
  relative viability: 0.489
- compound: "Cc1cnc(-c2cnc(NCCNc3ccc(C#N)cn3)nc2-c2ccc(Cl)cc2Cl)[nH]1 + CC1(C)CCC(c2ccc(Cl)cc2)=C(CN2CCN(c3ccc(C(=O)NS(=O)(=O)c4ccc(N[C@H](CCN5CCOCC5)CSc5ccccc5)c(S(=O)(=O)C(F)(F)F)c4)cc3)CC2)C1 [Navitoclax] (partner 0.5 µM)"
  relative viability: 1.15
- compound: "O=c1[nH]c2ccccc2n1C1CCN(CCCC(c2ccc(F)cc2)c2ccc(F)cc2)CC1 [Pimozide] + CC1(C)CCC(c2ccc(Cl)cc2)=C(CN2CCN(c3ccc(C(=O)NS(=O)(=O)c4ccc(N[C@H](CCN5CCOCC5)CSc5ccccc5)c(S(=O)(=O)C(F)(F)F)c4)cc3)CC2)C1 [Navitoclax] (partner 0.5 µM)"
  relative viability: 1.05

Switching to the query record.
Q: For Cc1cnc(-c2cnc(NCCNc3ccc(C#N)cn3)nc2-c2ccc(Cl)cc2Cl)[nH]1 + CS(=O)(=O)CCNCc1ccc(-c2ccc3ncnc(Nc4ccc(OCc5cccc(F)c5)c(Cl)c4)c3c2)o1 [Lapatinib] (partner 2 µM) , what is its reported relative viability?
Ans: 1.12
